# System: panel of more than 300 wild-type and mutant kinases (313 kinase panel)
# assayRemarks: Kinase profiling in a biochemical assay panel (mobility shift assays and ELISA), %-inhibition at 1 μM; selectivity entropy
# experimentalConditions: 1 µM
measuredProperty: %-inhibition of EML4-ALK (%)
Give the quantity in %, number only.

Need %-inhibition of EML4-ALK of COc1cc2c(Nc3ccc(Br)cc3F)ncnc2cc1OCC1CCN(C)CC1 [vandetanib] , thanks.
20

Then what about the compound N#CC[C@H](C1CCCC1)n1cc(-c2ncnc3[nH]ccc23)cn1 [ruxolitinib] ?
64

Then what about the compound C#Cc1cccc(Nc2ncnc3cc(OCCOC)c(OCCOC)cc23)c1 [erlotinib] ?
26

Then what about the compound Cc1cn(-c2cc(NC(=O)c3ccc(C)c(Nc4nccc(-c5cccnc5)n4)c3)cc(C(F)(F)F)c2)cn1 [nilotinib] ?
-12
